System: 786-0 renal
EXPERIMENT_NOTES: NCI tumour cell line growth inhibition, 48 h
MEASURE_NAME: TGI

Answer for every listed entry: what is its TGI? The entries follow.
1. Cc1ccc2c(n1)NC(=O)C(Cc1ccccc1)(N=[N+]=[N-])C2=O (stereo not given)
2. O=C1NC2C3CC(OCc4ccccc4)(OCc4ccccc4)C2OC3O1 (stereo not given)
3. O=C1C[C@@H]2[C@@H](c3ccccc3)[C@@H]3C(=O)c4ccccc4NC(=O)[C@H]3[C@]2(O)c2ccccc2N1
4. COc1cc(C2c3cc4c(cc3[C@@H](Nc3ccc([N+](=O)[O-])cc3)C3COC(=O)[C@H]23)OCO4)cc(OC)c1O (stereo not given in full)

Result ::
["> 100 µM", "> 50 µM", "> 100 µM", "3.35 µM"]

* * *

Test system: A549 NSCLC
EXPERIMENT_NOTES: NCI tumour cell line growth inhibition, 48 h
MEASURE_NAME: GI50

In the examples that follow, each entry is paired with its recorded GI50.
Query :: Assign GI50 to the following record: `CC(=O)CCc1ccc(Oc2c3c(nc4ccccc24)OCC3)cc1`
Result :: 11.7 µM

Query :: Assign GI50 to the following record: `Cc1ccc(N=Nc2c(O)ccc3n[nH]nc23)cc1`
Result :: 14.2 µM

Answer for every listed entry: what is its GI50? The entries follow.
1. Cn1cc(C2=C(c3cc[nH]c3)C(=O)NC2=O)c2ccccc21
2. CCC[n+]1cc2cc3c(cc2c2c1-c1cc4c(cc1C2)OCO4)OCO3 (tested in a mixture with another compound)

Result ::
> 25 µM
2.77 µM

* * *

Give TGI for every item shown.
Tested on: ACHN renal
EXPERIMENT_NOTES: NCI tumour cell line growth inhibition, 48 h

In the examples that follow, each entry is paired with its recorded TGI.
Query :: Assign TGI to the following record: O=[N+]([O-])c1ccc(C2SCc3nc4ccccc4n32)cc1 (stereo unspecified)
Result :: > 100 µM

Query :: Assign TGI to the following record: NC(=O)C(=O)C1C(=O)N(c2ccccc2)N=C1N (stereo unspecified)
Result :: > 100 µM

Query :: Assign TGI to the following record: `O=c1oc2ccccc2c(O)c1C(c1cccc(C(c2c(O)c3ccccc3oc2=O)c2c(O)c3ccccc3oc2=O)c1)c1c(O)c2ccccc2oc1=O`
Result :: > 100 µM

Answer for every listed entry: what is its TGI? The entries follow.
1. C[C@H]1COCCN1c1nc(-c2cnc(N)cc2C(F)F)nc(N2CCOCC2)n1
2. [Cl][Hg][c]1ccc2ccccc2c1
3. COc1ccc(CCc2ccc3c(c2)OCO3)cc1

Result ::
1: > 100 µM; 2: 11.8 µM; 3: > 100 µM

* * *

Tested on: HCT-116 colon
EXPERIMENT_NOTES: NCI tumour cell line growth inhibition, 48 h
MEASURE_NAME: TGI

Answer for every listed entry: what is its TGI? The entries follow.
1. COC(=O)C12C34C=CC5(CCC6(C=CC1(CC3)O6)C52C(=O)OC)O4 (centres undefined)
2. CCCCCCCCC(C)CCCCCCCCC(=O)OCC(COP(=O)([O-])OCC[N+](C)(C)C)OC(=O)CCCCCCCCC(C)CCCCCCCC (centres undefined)

Result ::
["> 100 µM", "> 100 µM"]

Answer for every listed entry: what is its TGI? The entries follow.
1. COc1ccc(-c2c(-c3ccccc3)c(C)nc3[nH]c(=S)[nH]c(=S)c23)cc1OC
2. CCOC(=O)/C(C#N)=C\Sc1ccccc1
3. CC(=Nc1cccc(Cl)c1)c1ccncc1
4. COc1ccc(C[C@@H](C(=O)O[C@H](C)[C@H](NC(=O)[C@@H](CC(C)C)N(C)C(=O)C2CCCN2C(=O)[C@H](C)O)C(=O)N2CCCCNC(=O)[C@@H](C)C(=O)[C@H](C(C)C)OC(=O)C[C@H](O)[C@H]2CC(C)C)N(C)C(C)=O)cc1 (some centres undefined)
5. COc1cccc(/C=C2\SC(=S)N(/C=C3\C(=O)Oc4ccccc4C3=O)C2=O)c1O
6. S=c1[nH]n2c(COc3ccc(Cl)cc3)nnc2s1
7. CC1=NN(c2cccc(Cl)c2)C(=O)/C1=C\C=C\c1ccccc1

Result ::
1. 64.9 µM
2. 59.8 µM
3. > 100 µM
4. > 50 µM
5. > 100 µM
6. > 100 µM
7. 3.09 µM

Answer for every listed entry: what is its TGI? The entries follow.
1. COc1cc2c(c(OC)c1OC)C(=O)[C@@H](O)[C@H]2NC(N)=O
2. Cc1nc2c(O)c3c(c(O)c2nc1C)C1C=CC3CC1
3. COc1c(-c2ccc3c(c2)OCO3)oc2cc(O)cc(O)c2c1=O
4. NNC(=O)c1cc([N+](=O)[O-])ccc1NC(=O)C12CC3CC(CC(C3)C1)C2
5. CC(=O)c1c2c(cc3c1CC1(Cc4cc5c(cc4C1)C(=O)CCC5)C3)CCCC2 (centres undefined)
6. Cc1c(Cl)cccc1NC(=O)c1sc2nc3c(cc2c1N)C(=O)CCC3
7. CC1(C)N=C(c2ccccc2)SC12S[C@@H]1CCCC[C@H]1S2
8. C[C@]12Cc3conc3C(O)=C1CC[C@@H]1C2CC[C@@]2(C)C1CC[C@]2(C)O (some centres undefined)

Result ::
["> 100 µM", "17.3 µM", "> 100 µM", "> 100 µM", "> 47.1 µM", "> 100 µM", "> 100 µM", "39.3 µM"]

Answer for every listed entry: what is its TGI? The entries follow.
1. COc1cc(C2c3cc4c(cc3[C@@H](Nc3ccc([N+](=O)[O-])cc3)C3COC(=O)[C@H]23)OCO4)cc(OC)c1O (some centres undefined)
2. O=C1N/C(=N\N=C\c2ccccc2)C2(CCCCC2)O1
3. O=C(/C=C/c1ccccc1)c1cc(C(=O)/C=C/c2ccccc2)c(O)cc1O
4. CC(=O)N1C(=O)c2cc3ccccc3cc21
5. C/C(O)=C(\C=NC(=S)c1cccnc1)C(=O)Nc1ccccc1C
6. CN(c1ccccc1)c1nc(=[N+]2CCCC2)ss1
7. Cc1cc(S(=O)(=O)NC2=NCCCN2)c(S)cc1Cl

Result ::
14.2 µM
> 100 µM
> 100 µM
> 100 µM
> 100 µM
> 100 µM
94.1 µM

* * *

Tested on: SK-MEL-28 melanoma
EXPERIMENT_NOTES: NCI tumour cell line growth inhibition, 48 h
Give GI50 for every item shown.

In the examples that follow, each entry is paired with its recorded GI50.
Query :: Under SK-MEL-28 melanoma, report GI50 for OC(CN1CCCC2CCCCC21)c1cc2ccccc2c2ccccc12 (configuration not stated)
Result :: 2.06 µM

Query :: Under SK-MEL-28 melanoma, report GI50 for `CC(C)(O)CCc1cccc(C(=O)c2cnn(-c3ccc(F)cc3)c2N)c1`
Result :: > 25 µM

Query :: Under SK-MEL-28 melanoma, report GI50 for `Cc1ccc(-c2c3c(nn2-c2ccc(S(=O)(=O)NC(=O)NC4CCCCC4)cc2)-c2ccccc2C3)cc1`
Result :: 18.3 µM

Query :: Under SK-MEL-28 melanoma, report GI50 for CCC[n+]1cc2cc3c(cc2c2c1-c1cc4c(cc1C2)OCO4)OCO3 (tested in a mixture with another compound)
Result :: 0.783 µM

Query :: Under SK-MEL-28 melanoma, report GI50 for C[C@@]1(C(=O)O)CCC[C@]2(C)C1CC[C@]13C[C@@](O)(CO)[C@](O)(CC[C@]12O)C3 (some centres not stated)
Result :: > 100 µM

Answer for every listed entry: what is its GI50? The entries follow.
1. COc1c(B(O)O)cccc1-c1nc2ccc3[nH]ncc3c2c2c1CCCC2
2. C=CCC(N[C@H](CO)c1ccccc1)c1ccccn1 (some centres not stated)

Result ::
1. 3.42 µM
2. > 100 µM

* * *

Give TGI for every item shown.
Test system: SK-MEL-2 melanoma
EXPERIMENT_NOTES: NCI tumour cell line growth inhibition, 48 h

In the examples that follow, each entry is paired with its recorded TGI.
Query :: Assign TGI to the following record: `COc1ccc(/C=C2\Sc3nnc(-c4ccccc4)n3N=C2c2cc(F)c(Cl)cc2Cl)cc1OC`
Result :: > 100 µM

Query :: Assign TGI to the following record: `CN(c1ccccc1)c1nc(=[N+]2CCCC2)ss1`
Result :: > 100 µM

Query :: Assign TGI to the following record: `O=C1CC(Cc2n[nH]c3c2CCCC3)CC(=O)N1`
Result :: > 100 µM

Query :: Assign TGI to the following record: `O=C(OCc1ccccc1)c1ccc(NCc2cc(O)ccc2O)cc1`
Result :: 5.23 µM

Query :: Assign TGI to the following record: `CC(C)=CCC/C(C)=C/Cc1c(O)c(C)cc2c1[nH]c1cc(O)ccc12`
Result :: > 25 µM

Answer for every listed entry: what is its TGI? The entries follow.
1. Cc1c(NC(=O)CSC(=S)N(C)C)c(=O)n(-c2ccccc2)n1C
2. c1ccc2c(c1)SCCc1cn[nH]c1-2
3. Cc1ccc2c(c1)C=CC1(O2)N(c2ccccc2)C(=S)OC1(C)C (stereo unspecified)
4. O=C1C(Cl)=C(Cl)C(=O)N1c1ccc(F)cc1

Result ::
> 100 µM
> 100 µM
> 100 µM
> 72.8 µM

Answer for every listed entry: what is its TGI? The entries follow.
1. COc1ccc(/C=C2\CCC(C)c3c2nc(N)c(C#N)c3-c2ccc(OC)c(OC)c2)cc1OC (stereo unspecified)
2. Cc1ccnc2c(NC(C)CCCN)cc(O)c(O)c12 (stereo unspecified)

Result ::
1: > 100 µM; 2: > 100 µM
